B1: VH:VL chains; a variant is named by its letters at X, in order (parent)
chain 1: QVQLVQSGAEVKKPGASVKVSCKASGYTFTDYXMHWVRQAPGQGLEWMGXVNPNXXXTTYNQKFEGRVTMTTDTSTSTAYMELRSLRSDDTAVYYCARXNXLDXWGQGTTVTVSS
chain 2: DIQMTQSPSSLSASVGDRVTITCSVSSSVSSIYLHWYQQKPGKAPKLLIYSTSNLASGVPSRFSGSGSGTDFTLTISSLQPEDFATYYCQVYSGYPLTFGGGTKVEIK

Variants of: B1
ASSAY NOTES: yeast display scFab, FACS + sequencing
READOUT TYPE: non-specific binding call

YRERSDVS = binds
DRRKAFSA = binds
YRTAGAGV = binds
AGGGNSGV = no binding

Value of measured non-specific binding call for the entry SGRGNSGV : no binding

Value of measured non-specific binding call for the entry YRRRGASV : binds

Value of measured non-specific binding call for the entry VRGTGVAV : binds

Value of measured non-specific binding call for the entry YAAKTAAA : binds

Value of measured non-specific binding call for the entry FKGGSSAA : binds

Value of measured non-specific binding call for the entry YKGRGAAS : binds

Value of measured non-specific binding call for the entry VRRGGSAA : binds

Value of measured non-specific binding call for the entry VAGGAYLY : no binding

From: the emibetuzumab library of Makowski et al. (2022)
